Entry source: ChEMBL document CHEMBL4321847

# test details: in vitro
# run parameters: human, microsomes
# Description: Metabolic stability in human liver microsomes assessed as total metabolism
Returns: string. Value is MET if measured metabolised is below 40%, and NOT MET if it is greater than or equal to it.

Worked set:
Oc1ccc(C2=C(c3ccc(O[C@H]4CCN(CCCF)C4)cc3)c3ccc(O)cc3CCC2)cc1 | NOT MET
O=C(O)c1ccc2c(c1)CCCC(c1ccccc1Cl)=C2c1ccc(O[C@H]2CCN(CCCF)C2)cc1 | MET
Oc1ccc2c(c1)CCCC(c1ccncc1)=C2c1ccc(O[C@H]2CCN(CCCF)C2)cc1 | NOT MET
Oc1ccc2c(c1)CCCC(c1ccc3[nH]ncc3c1)=C2c1ccc(O[C@H]2CCN(CCCF)C2)cc1 | NOT MET
O=C(O)c1ccc2c(c1)CCCC(c1ccc(Cl)cc1Cl)=C2c1ccc(O[C@H]2CCN(CCCF)C2)cc1 | MET

Bench note: check whether Oc1ccc2c(c1)C(c1ccc(O[C@H]3CCN(CCCF)C3)cc1)=C(c1ccc(F)cc1Cl)CCC2 shows metabolised below 40%
NOT MET

Just wondering, is metabolised of Oc1ccc2c(c1)CCCC(c1ccccc1)=C2c1ccc(O[C@H]2CCN(CCCF)C2)cc1 below 40%?
MET

Strictly below 40%: is that where metabolised of Oc1ccc2c(c1)CCCC(c1ccc(Cl)cc1Cl)=C2c1ccc(O[C@H]2CCN(CCCF)C2)cc1 sits?
MET

Consider O=C(O)c1ccc2c(c1)CCCC(c1ccc(Cl)cc1)=C2c1ccc(O[C@H]2CCN(CCCF)C2)cc1 . Does its metabolised lie strictly below 40%?
MET

* * *

# test details: in vivo
# run parameters: dog, iv, 3 mg/kg
# Description: Volume of distribution at steady state in dog at 3 mg/kg, iv or 10 mg/kg, po
reported metric: Vd
A complete answer gives the number followed by the unit.

Look up Vd: O=C(O)c1ccc2c(c1)CCCC(c1ccc(Cl)cc1Cl)=C2c1ccc(O[C@H]2CCN(CCCF)C2)cc1
0.5 L/kg

* * *

# test details: in vitro
# run parameters: human, microsomes
Listing of entries alongside the reported metabolised.
Express your answer in %, writing the number without its unit.

Some entries whose results are on file:
Oc1ccc2c(c1)CCCC(c1cccc(Cl)c1F)=C2c1ccc(O[C@H]2CCN(CCCF)C2)cc1 | 37
Oc1ccc2c(c1)CCCC(c1cccnc1)=C2c1ccc(O[C@H]2CCN(CCCF)C2)cc1 | 70
O=C(O)c1ccc2c(c1)CCCC(c1ccc(OC(F)(F)F)cc1)=C2c1ccc(O[C@H]2CCN(CCCF)C2)cc1 | 20
Oc1ccc(C2=C(c3ccc(O[C@H]4CCN(CCCF)C4)cc3)c3cc(O)ccc3CCC2)cc1 | 49
Oc1ccc2c(c1)CCCC(c1ccc3[nH]ccc3c1)=C2c1ccc(O[C@H]2CCN(CCCF)C2)cc1 | 39

Which metabolised is listed for Oc1ccc2c(c1)CCCC(c1ccc(F)cc1Cl)=C2c1ccc(O[C@H]2CCN(CCCF)C2)cc1 ?
31

Recorded metabolised of O=C(O)c1ccc2c(c1)CCCC(c1cccc(F)c1Cl)=C2c1ccc(O[C@H]2CCN(CCCF)C2)cc1 , please.
28

Any idea what its metabolised is? The molecule is O=C(O)c1ccc2c(c1)CCCC(c1ccc(SC(F)(F)F)cc1)=C2c1ccc(O[C@H]2CCN(CCCF)C2)cc1
10

* * *

# test details: in vivo
# run parameters: mouse
# Description: Half life in mouse at 3 mg/kg, iv or 10 mg/kg, po
reported metric: half-life (min)
// return numeric value only (unit: min, not printed)

Given the compound O=C(O)c1ccc2c(c1)CCCC(c1ccc(Cl)cc1Cl)=C2c1ccc(O[C@H]2CCN(CCCF)C2)cc1 , what is its reported half-life?
119
